Test system: Clone V cells
measurement_setup: human, 16 h, 30 µM
readout_type: Toxicity Assay % Fluor (%)

{"compound": "COc1cc([C@@H]2c3cc4c(cc3[C@@H](O[C@@H]3O[C@@H]5CO[C@@H](C)O[C@H]5[C@H](O)[C@H]3O)[C@H]3COC(=O)[C@H]23)OCO4)cc(OC)c1O [Etoposide]", "number": 88.49}
{"compound": "Cc1[nH]c(/C=C2\\C(=O)Nc3ccc(S(=O)(=O)N(C)c4cccc(Cl)c4)cc32)c(C)c1C(=O)N1CCN(C)CC1", "number": 97.70}
{"compound": "CCCS(=O)(=O)Nc1ccc(F)c(C(=O)c2c[nH]c3ncc(Cl)cc23)c1F [PLX4720, reference compound]", "number": 93.90}
{"compound": "COc1cc2ncnc(Nc3cccc(Br)c3)c2cc1OC", "number": 98.57}
